# Experimental target: T1, cytochrome b562 with C-terminally fused Strep-tagII (E. coli)
# T1 construct: also called Cytb562-StrepII; Cytb562-StrepIII
# Assay summary: affinity chromatography, overloaded Sepharose column, washed, biotin elution
The following binders are shown together with reported Retained Cytb562-StrepII per immobilized mutein relative to mutein “1” values.
Give the value in % but do not write % after it.

Binder: mutein“1”-m36 (designed binder, Library 3 clone on mutein “1”) EAGITGTWYNQLGSTFIVTAGADGALTGTYVTARGNAESRYVLTGRYDSAPATDGSGTALGWTVAWKNNYRNAHSATTWSGQYVGGAEARINTQWLLTSGTTEYNAFMSTLVGHDTFTKVKPSAAS
Recorded number: 254

Next item in the queue.
Asked: Fill blank: measured Retained Cytb562-StrepII per immobilized mutein relative to mutein “1” of the binder mutein“1”-m111 (designed binder, Library 5 clone on mutein “1”) EAGITGTWYNQLGSTFIVTAGADGALTGTYVTARGNAESRYVLTGRYDSAPATDGSGTALGWTVAWKNNYRNAHSATTWSGQYVGGAEARINTQWLLTSGTTEYNALWSTLVGHDTFTKVKPSAAS is ____.
Given back: 246

Sourced from patent US20210139545A1
